Biological target: CepR (Burkholderia cenocepacia)
Sequence (B4EMD0 1-239): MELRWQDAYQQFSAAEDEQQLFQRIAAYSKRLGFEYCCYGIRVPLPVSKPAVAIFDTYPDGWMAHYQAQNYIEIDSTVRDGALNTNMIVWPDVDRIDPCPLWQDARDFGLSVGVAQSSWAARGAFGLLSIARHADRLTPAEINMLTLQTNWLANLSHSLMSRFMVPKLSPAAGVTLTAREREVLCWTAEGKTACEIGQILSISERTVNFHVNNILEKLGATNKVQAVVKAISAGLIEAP
Assay: CepR agonism in E. coli β-galactosidase reporter (Ec-reporter) JLD271 [pJN105-cepR + pSC11-cepI]
Format: cell-based, B. cenocepacia
Details: Table S2, Ec-reporter; screening conc. 100 μM
recordedEndpoint: Act% (%)

molecule: COc1ccc(CC(=O)NC2CCSC2=O)cc1 (stereo not shown) [Compound F12]
observedResult: 2.4
--
molecule: CCCCCCCCCC(=O)CC(=O)NCc1ccccc1F [Compound F26]
observedResult: -1.2
--
molecule: O=C(Cc1cccc([N+](=O)[O-])c1)NC1CCSC1=O (stereo not shown) [Compound F11]
observedResult: 45.0
--
molecule: O=C(COc1cccc([N+](=O)[O-])c1)N[C@H]1CCOC1=O [Compound E25]
observedResult: 25
--
molecule: O=C(Cc1cccc([N+](=O)[O-])c1)Nc1ccccc1 [Compound F25]
observedResult: 3.0
--
molecule: CCOc1ccc(C(=O)N[C@H]2CCOC2=O)cc1 [Compound R1]
observedResult: 99
--
molecule: O=C(N[C@H]1CCOC1=O)c1ccccc1Br [Compound Q1]
observedResult: 5.8
--
molecule: O=C(Cc1ccc(Cl)cc1)N[C@H]1CCOC1=O [Compound C5]
observedResult: 0.1
--
molecule: O=C(C=Cc1ccccc1)NC1CCOC1=O (stereo not shown) [Compound B10]
observedResult: 60
--
molecule: CCCCCCCCCCCCCC(=O)CC(=O)NC1CCOC1=O (stereo not shown) [3’O-C16-AHL, reference compound]
observedResult: 8.3
--
molecule: Cc1nc(-c2ccccc2)oc1CC(=O)N[C@H]1CCOC1=O [Compound D4]
observedResult: 40
--
molecule: O=C(CC(=O)N[C@H]1CCOC1=O)Cc1cccc(Cl)c1 [Compound H23]
observedResult: 53
--
molecule: CCCCCCCCc1ccc(C(=O)N[C@H]2CCOC2=O)cc1 [Compound D13]
observedResult: 4.2
--
molecule: Cc1ccc(OCC(=O)N[C@H]2CCOC2=O)cc1 [Compound E15]
observedResult: 65
--
molecule: CCCC(=O)N[C@H]1CCOC1=O [Compound C4-AHL, butanoyl L-homoserine lactone, reference compound]
observedResult: 23
--
molecule: CCCCCCCCCCCC(O)CC(=O)N[C@@H]1CCOC1=O (stereo partly shown) [3’OH-C14-AHL, reference compound]
observedResult: 33
--
molecule: O=C(Cc1cccc(Cl)c1)N[C@H]1CCOC1=O [Compound C6]
observedResult: 3.2
--
molecule: O=C(COc1ccc([N+](=O)[O-])cc1)N[C@H]1CCOC1=O [Compound E24]
observedResult: 75
--
molecule: CCCCCC(=O)N[C@H]1CCOC1=O [Compound C6-AHL, hexanoyl L-homoserine lactone, reference compound]
observedResult: 87
